test: Plasma pharmacokinetics in healthy human subjects, alone or in combination; settings: human, in vivo, AUCtau, Mean (% CV), Compound B analyte; Compound B 200 mg + Compound A 100 mg BID, fed (N = 8)
Attribute measured: AUC (µg·h/mL)
Reply with just the number (in µg·h/mL).

Incoming: Quote AUC reported for c1cn2cc(-c3ccc4cn[nH]c4c3)nc(Nc3ccc(N4CCOCC4)cc3)c2n1 please.
Outgoing: 6.75

---

assay: Plasma pharmacokinetics in healthy human subjects, alone or in combination; conditions: human, plasma, oral, 150 mg, AUCtau, Mean (% CV), Compound A analyte; Compound A 150 mg BID alone, fed (N = 7)
Attribute measured: AUC (ng·h/mL)
Reply with just the number (in ng·h/mL).

Incoming: Quote AUC reported for CC[C@H](Nc1ncnc2[nH]cnc12)c1nc2cccc(F)c2c(=O)n1-c1ccccc1 please.
Outgoing: 13800

---

assay: Plasma pharmacokinetics in healthy human subjects, alone or in combination; details: human, plasma, oral, AUCtau, Mean (% CV), Compound A analyte; Compound A 100 + Compound B 200 or 600 mg BID, fed (N = 16)
Attribute measured: AUC (µg·h/mL)
Reply with just the number (in µg·h/mL).

Incoming: Quote AUC reported for CC[C@H](Nc1ncnc2[nH]cnc12)c1nc2cccc(F)c2c(=O)n1-c1ccccc1 please.
Outgoing: 9.51
